The measured values listed here are drawn from patent EP1806348A2.

Molecular target: cdc2/cyclinB (Homo sapiens)
Sequence (P06493 whole entry): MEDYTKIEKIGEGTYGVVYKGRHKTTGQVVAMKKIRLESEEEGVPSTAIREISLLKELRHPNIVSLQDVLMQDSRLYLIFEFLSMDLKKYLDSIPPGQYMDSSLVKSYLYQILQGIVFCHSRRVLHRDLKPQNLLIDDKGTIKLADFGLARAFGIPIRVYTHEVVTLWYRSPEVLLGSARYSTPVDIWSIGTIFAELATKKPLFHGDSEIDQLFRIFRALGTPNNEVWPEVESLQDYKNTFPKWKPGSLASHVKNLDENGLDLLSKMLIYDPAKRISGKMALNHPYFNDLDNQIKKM
Sequence (P14635 whole entry, further chain): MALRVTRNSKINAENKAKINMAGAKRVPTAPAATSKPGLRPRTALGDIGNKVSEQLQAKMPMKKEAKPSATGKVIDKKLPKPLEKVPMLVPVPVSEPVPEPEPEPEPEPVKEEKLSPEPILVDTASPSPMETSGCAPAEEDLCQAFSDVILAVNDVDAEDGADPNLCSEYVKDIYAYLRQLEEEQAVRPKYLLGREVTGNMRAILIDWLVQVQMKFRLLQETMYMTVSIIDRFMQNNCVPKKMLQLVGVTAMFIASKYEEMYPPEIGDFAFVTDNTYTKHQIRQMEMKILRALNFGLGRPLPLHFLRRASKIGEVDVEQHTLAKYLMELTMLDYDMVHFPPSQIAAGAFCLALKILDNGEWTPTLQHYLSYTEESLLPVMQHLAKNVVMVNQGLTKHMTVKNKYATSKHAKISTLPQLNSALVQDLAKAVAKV
Test: Cyclin-dependent kinase assay (cdc2/cyclinB)
Details: Table 1; read-out: cdk1/B IC50
readout: IC50 (nM)

A. CC(C)n1c(=O)ccc2cnc(Nc3ccccc3)nc21
B. O=c1ccc2cnc(Nc3ccccc3)nc2n1C1CCCC1
C. CCn1c(=O)ccc2cnc(Nc3ccc(F)cc3)nc21
D. O=c1ccc2cnc(Nc3ccccc3)nc2n1C1CCCCCC1
E. Cn1c(=O)ccc2cnc(NCc3ccccc3)nc21
## Task Order them by IC50, ascending: the compounds above. Hello, could you send the labels back in the order asked? Thank you.
## Result D, B, A, C, E
(D: 65 nM, B: 190 nM, A: 440 nM, C: 2070 nM, E: 21600 nM)

A. CCCCn1c(=O)ccc2cnc(Nc3ccccc3)nc21
B. O=c1ccc2cnc(Nc3ccccc3)nc2n1C1CC2CCC1C2 (centres unmarked)
## Task // max by IC50 over [ A , B ] Mark your selection by writing its label.
## Result B

P. CCC(CC)n1c(=O)ccc2cnc(Nc3ccc(N4CCN(C)CC4)cc3)nc21
Q. CCn1c(=O)ccc2cnc(Nc3cccc(OC(F)(F)C(F)F)c3)nc21
R. CCn1c(=O)ccc2cnc(Nc3ccccc3)nc21
## Task # sort list by recorded IC50, greatest to least Response field: labels, in requested order.
## Result R, P, Q

1. CCN(CC)CCOc1ccc(Nc2ncc3ccc(=O)n(C(C)C)c3n2)cc1
2. CCn1c(=O)ccc2cnc(Nc3ccc(OC)cc3)nc21
3. CCn1c(=O)ccc2cnc(NCc3ccccc3)nc21
4. CCN(CC)CCOc1ccc(Nc2ncc3ccc(=O)n(CC)c3n2)cc1
## Task List by increasing IC50. Record the ranking as a list of labels in the requested order.
## Result 2, 1, 4, 3

P. O=c1ccc2cnc(Nc3ccccc3)nc2n1CCCOc1ccccc1
Q. O=c1ccc2cnc(Nc3ccccc3)nc2n1C1CCCCC1
## Task Task for the reader: decide whether P or Q has the larger IC50. Answer = label.
## Result P

P. CCn1c(=O)ccc2cnc(NC(C)(C)C)nc21
Q. CCn1c(=O)ccc2cnc(Nc3ccc(N(C)C)cc3)nc21
## Task Compare the recorded IC50 of P and Q ; state which is larger. Respond using the label that marks the chosen record.
## Result P
(P: 3410 nM, Q: 780 nM)

====

Molecular target: human FGF-1 (flg) receptor tyrosine kinase (Homo sapiens, UniProt P11362)
Construct: amplify a fragment of DNA that codes for the intracellular tyrosine kinase domain
Sequence (P11362 478-767 limits assumed): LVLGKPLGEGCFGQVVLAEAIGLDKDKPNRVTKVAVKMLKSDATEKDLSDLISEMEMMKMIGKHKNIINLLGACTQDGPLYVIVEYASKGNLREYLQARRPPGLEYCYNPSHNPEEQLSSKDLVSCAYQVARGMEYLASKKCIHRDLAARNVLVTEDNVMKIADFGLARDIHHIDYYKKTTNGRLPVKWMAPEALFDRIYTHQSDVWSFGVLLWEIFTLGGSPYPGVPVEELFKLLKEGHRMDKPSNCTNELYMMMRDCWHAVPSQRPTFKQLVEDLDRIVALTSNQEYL
Assay: FGF receptor tyrosine kinase assay
Settings: Table 3
pIC50: −log10 of the molar value.
readout: pIC50

Below, 3 compounds whose answers are already recorded.
INSERT INTO results (compound, target_of_assay, readout_number) VALUES
  ('O=c1ccc2cnc(Nc3ccccc3)nc2n1C1CC2CCC1C2 (centres unmarked)', 'human FGF-1 (flg) receptor tyrosine kinase (Homo sapiens, UniProt P11362)', 4.92),
  ('O=c1ccc2cnc(Nc3ccc(-n4cccn4)cc3)nc2n1C1CCCCC1', 'human FGF-1 (flg) receptor tyrosine kinase (Homo sapiens, UniProt P11362)', 4.71),
  ('O=c1ccc2cnc(Nc3ccccc3)nc2n1C1CCCC1', 'human FGF-1 (flg) receptor tyrosine kinase (Homo sapiens, UniProt P11362)', 5.53);

I. O=c1ccc2cnc(Nc3ccccc3)nc2n1C1CCCCC1
II. CCCn1c(=O)ccc2cnc(Nc3ccccc3)nc21
## Task Which gives the smaller pIC50 number: I or II ? Answer by stating the label of the chosen item.
## Result I

====

Target: cdk4/D (Homo sapiens, UniProt P11802)
Sequence (P11802 whole entry): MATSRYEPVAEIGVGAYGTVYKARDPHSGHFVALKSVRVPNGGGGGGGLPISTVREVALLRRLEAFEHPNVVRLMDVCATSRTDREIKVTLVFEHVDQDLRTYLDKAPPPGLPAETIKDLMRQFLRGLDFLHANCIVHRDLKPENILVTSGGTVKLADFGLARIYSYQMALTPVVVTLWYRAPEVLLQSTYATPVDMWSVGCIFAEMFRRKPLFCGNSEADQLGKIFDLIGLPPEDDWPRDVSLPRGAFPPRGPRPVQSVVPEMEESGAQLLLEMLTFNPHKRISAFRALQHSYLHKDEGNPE
Sequence (P24385 whole entry, further chain): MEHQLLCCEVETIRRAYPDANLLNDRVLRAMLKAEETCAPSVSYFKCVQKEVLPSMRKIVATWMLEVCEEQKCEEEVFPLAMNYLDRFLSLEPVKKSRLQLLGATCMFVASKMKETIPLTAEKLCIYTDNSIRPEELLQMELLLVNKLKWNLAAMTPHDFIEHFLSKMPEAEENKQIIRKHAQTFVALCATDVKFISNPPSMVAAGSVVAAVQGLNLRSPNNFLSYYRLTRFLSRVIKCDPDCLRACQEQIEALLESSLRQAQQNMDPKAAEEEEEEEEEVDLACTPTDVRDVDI
Test: Cyclin-dependent kinase 4 (cdk4) enzyme assay, 32P incorporation into retinoblastoma
Assay type: biochemical
Details: Table 1; 25 µM ATP, retinoblastoma substrate
pIC50: −log10 of the molar value.
readout: pIC50

Consider the following illustrative entries.
INSERT INTO results (molecule, readout_number) VALUES
  ('CCN(CC)CCOc1ccc(Nc2ncc3ccc(=O)n(CC)c3n2)cc1 [Example 52]', 6.80),
  ('CCn1c(=O)ccc2cnc(NC3CCCCC3)nc21 [Example 48]', 5.48),
  ('CC(C)n1c(=O)ccc2cnc(Nc3ccccc3)nc21 [Example 43]', 6.82),
  ('CCn1c(=O)ccc2cnc(Nc3ccncc3)nc21 [Example 50]', 5.70),
  ('CCNc1ncc2ccc(=O)n(CC)c2n1 [Example 45]', 4.92),
  ('O=c1ccc2cnc(Nc3ccccc3)nc2n1C1CCCCC1 [Example 131]', 7.33),
  ('COc1ccc(Cn2c(=O)ccc3cnc(Nc4ccccc4)nc32)cc1 [Example 58]', 5.00),
  ('Cn1c(=O)ccc2cnc(Nc3ccccc3)nc21 [Example 61]', 5.16),
  ('CCn1c(=O)ccc2cnc(Nc3ccc(F)cc3)nc21 [Example 88]', 5.89),
  ('CCn1c(=O)ccc2cnc(Nc3cccc(F)c3OC)nc21 [Example 91]', 5.05);

P. CCN(CC)c1ccc(Nc2ncc3ccc(=O)n(CC)c3n2)cc1 [Example 78]
Q. CCn1c(=O)ccc2cnc(Nc3ccc(OC)cc3)nc21 [Example 51]
## Task Hi, I'm comparing P with Q and wondering which one has the bigger number for pIC50. Any idea? Kindly give the label for the entry you pick.
## Result Q

P. CCn1c(=O)ccc2cnc(Nc3cccc(F)c3)nc21 [Example 89]
Q. CCN(CC)CCOc1ccc(Nc2ncc3ccc(=O)n(C(C)C)c3n2)cc1 [Example 59]
R. CCn1c(=O)ccc2cnc(Nc3ccc(OCc4ccccc4)cc3)nc21 [Example 56]
## Task Hey, quick one: sort these by pIC50, low to high? API: response body holds the labels in the requested order.
## Result R, P, Q

P. CCn1c(=O)c(C)cc2cnc(Nc3ccccc3)nc21 [Example 83]
Q. O=c1ccc2cnc(Nc3ccccc3)nc2n1C1CCCCCC1 [Example 155]
## Task Smaller pIC50 value? Options are P and Q The response must carry the label of the picked entry.
## Result P
(P: 5.74, Q: 6.74)

A. CCCCn1c(=O)ccc2cnc(Nc3ccccc3)nc21 [Example 40]
B. CCCn1c(=O)ccc2cnc(Nc3ccccc3)nc21 [Example 41]
C. CCn1c(=O)ccc2cnc(Nc3cccc(OC(F)(F)C(F)F)c3)nc21 [Example 54]
D. CCCCNc1ncc2ccc(=O)n(C)c2n1 [Example 64]
## Task Rank entries according to their pIC50, from the largest number down. Use the labels to give the requested order.
## Result B, A, C, D
(B: 6.26, A: 5.83, C: 5.11, D: 4.40)

====

Biological target: cdk6/D3 (Homo sapiens)
Sequence (P30281 whole entry): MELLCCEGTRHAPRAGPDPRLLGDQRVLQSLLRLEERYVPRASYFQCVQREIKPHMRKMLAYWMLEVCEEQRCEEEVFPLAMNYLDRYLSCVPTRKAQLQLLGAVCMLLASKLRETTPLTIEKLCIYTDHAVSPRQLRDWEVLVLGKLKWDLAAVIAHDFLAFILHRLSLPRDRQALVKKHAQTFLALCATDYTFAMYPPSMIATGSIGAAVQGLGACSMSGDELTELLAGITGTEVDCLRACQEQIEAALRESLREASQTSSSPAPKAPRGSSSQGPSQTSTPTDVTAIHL
Sequence (Q00534 whole entry): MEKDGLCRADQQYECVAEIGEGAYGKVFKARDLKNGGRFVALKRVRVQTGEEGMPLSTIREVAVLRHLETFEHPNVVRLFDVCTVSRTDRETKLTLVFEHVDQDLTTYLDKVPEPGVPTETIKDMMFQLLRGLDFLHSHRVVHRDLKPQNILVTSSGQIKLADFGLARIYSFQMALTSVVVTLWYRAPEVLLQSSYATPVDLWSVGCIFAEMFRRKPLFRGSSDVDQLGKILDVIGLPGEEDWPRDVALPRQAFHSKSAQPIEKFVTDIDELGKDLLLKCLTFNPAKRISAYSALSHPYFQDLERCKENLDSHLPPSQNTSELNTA
Assay: cdk6/D3 enzyme assay, similar to cdk4 assay
Details: read-out: IC50 against cdk6/D3
readout: IC50 (nM)
# unit: nM | format: bare number

## Task // IC50 lookup, key: O=c1ccc2cnc(Nc3ccc(N4CCC(CCCO)CC4)cc3)nc2n1C1CC2CCC1C2 (stereo not shown)
## Result 13

====

Molecular target: human FGF-1 (flg) receptor tyrosine kinase (Homo sapiens, UniProt P11362)
Construct: amplify a fragment of DNA that codes for the intracellular tyrosine kinase domain
Assay: FGF receptor tyrosine kinase assay
Conditions: Table 3
Method: Full-length cDNAs for the mouse PDGF-β and human FGF-1 (flg) receptor tyrosine kinases were obtained from J. Escobedo and prepared as described in J. Biol. Chem., 1991;262:1482-1487. […] Filters were washed three times with 15% TCA containing 100 mM sodium pyrophosphate, and the radioactivity retained on the filters counted in a Wallac 1250 Betaplate reader. Nonspecific activity was defined as radioactivity retained on the filters following incubation of samples with buffer alone (no enzyme). […]
readout: IC50 (µM)

INSERT INTO measurements (compound, readout, readout_number) VALUES
  ('CCn1c(=O)ccc2cnc(Nc3ccccc3)nc21', 'IC50', 3.3);

I. CC(C)Cn1c(=O)ccc2cnc(Nc3ccccc3)nc21
II. O=c1ccc2cnc(Nc3ccc(N4CCC(CCO)CC4)cc3)nc2n1C1CCCC1
III. CCN(CC)CCOc1ccc(Nc2ncc3ccc(=O)n(C4CCCCC4)c3n2)cc1C
IV. CC1CC(C)CN(c2ccc(Nc3ncc4ccc(=O)n(C5CCCCC5)c4n3)cc2)C1 (centres unmarked)
## Task Kindly order the items shown according to IC50, from the highest value down. I would appreciate it if you listed the labels in the requested order.
## Result IV, I, II, III

====

Target: cdk4/D (Homo sapiens, UniProt P11802)
Test: Cyclin-dependent kinase 4 (cdk4) enzyme assay, 32P incorporation into retinoblastoma
Format: biochemical
Conditions: Table 2, Formula II compounds
readout: pIC50
Keep it numeric: pIC50 is minus log10 of the concentration in mol/L.

## Task Value lookup for pIC50; key = `CCNc1nc(Nc2ccccc2)ncc1CCC(=O)OCC`
## Result 4.05

====

Molecular target: cdk4/D (Homo sapiens)
Assay: Cyclin-dependent kinase 4 (cdk4) enzyme assay, 32P incorporation into retinoblastoma
Assay type: biochemical
Settings: Table 1; 25 µM ATP, retinoblastoma substrate
pIC50: −log10 of the molar value.
readout: pIC50

Examples from the recorded data:
INSERT INTO measurements (compound, readout_number) VALUES
  ('CCn1c(=O)ccc2cnc(Nc3ccc(N4CCN(C)CC4)cc3)nc21 [Example 53]', 7.07),
  ('CCn1c(=O)ccc2cnc(Nc3ccc(N(C)C)cc3)nc21 [Example 93]', 6.42),
  ('CCC(C)n1c(=O)ccc2cnc(Nc3ccccc3)nc21 (centres unmarked) [Example 85]', 6.70);

1. CCn1c(=O)ccc2cnc(Nc3ccc(O)cc3)nc21 [Example 55]
2. COCn1c(=O)ccc2cnc(Nc3ccccc3)nc21 [Example 37]
## Task // compare measured pIC50, left 1 , right 2 , return larger Your answer should be the label attached to the chosen record.
## Result 1
